Tested on: young human fibroblast primary cell culture
Experiment: MTT cytotoxicity assay
Format: cell-based
Settings: peptide 200 μg mL−1, 48 h, 37 °C, 5% FBS, mean ± SD (n = 3)
Marks after values point to notes of the source that are not given here. Ends that are not written are not given here.
For each of the substances below, state its Cellular Viability (%), Fibroblast cells, 48 h.

Hi! What's the reported Cellular Viability (%), Fibroblast cells, 48 h for RWQWRAQWR-NH2 [Peptide A6] on young human fibroblast primary cell culture?
79 ± 4 ^a %

Hi! What's the reported Cellular Viability (%), Fibroblast cells, 48 h for RWQWAWQWR-NH2 [Peptide A5] on young human fibroblast primary cell culture?
82 ± 1 ^a %

Hi! What's the reported Cellular Viability (%), Fibroblast cells, 48 h for RWQWRWAWR-NH2 [Peptide A7] on young human fibroblast primary cell culture?
79 ± 5 ^a %

Hi! What's the reported Cellular Viability (%), Fibroblast cells, 48 h for RWQWRWQWA-NH2 [Peptide A9] on young human fibroblast primary cell culture?
100 ± 3 ^a %

Hi! What's the reported Cellular Viability (%), Fibroblast cells, 48 h for RWQWRWQAR-NH2 [Peptide A8] on young human fibroblast primary cell culture?
85 ± 4 ^a %

Hi! What's the reported Cellular Viability (%), Fibroblast cells, 48 h for RAQWRWQWR-NH2 [Peptide A2] on young human fibroblast primary cell culture?
87 ± 2 ^a %

These data points were gathered from paper PMC9053608.
